- Study target: T1, recombinant, soluble his tagged human EGFR (Sino Biologicals) (human, UniProt P00533 25-645)
- T1 construct: extracellular domain; also called human epidermal growth factor receptor; not shown: his tag
- Test summary: BLI (ForteBio Octet Red), IgG on protein A tips, 100 nM soluble EGFR;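 further: antibody binding to EGFR read out as on and off rates plus equilibrium affinity, calculated with the Octet instrument software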

- Binder: "CoDAH design C3 VH/C2 Vκ (antibody, V domains shown, Cross pair; Measured as full length IgG) VH: QVQLQQSGPGLVKPSETLSLTCTVSGFSLTNYGVHWVRQSPGKGLEWLGVIWSGGNTDYNTPFTSRLTISVDTSKNQVSLKLSSVTSNDTAVYYCARALTYYDYEFAYWGQGTLVTVSA VL: DIVLTQSPVFLSVTPGEKVTITCRASQSIGTNIHWYQQKPDQSPKLLIKYASESISGVPSRFSGSGSGTDFTLTINSVESEDIADYYCQQNNNWPTTFGAGTKLELKR"
  binding result: "binds"
- Binder: "CoDAH design C5 VH/C3 Vκ (antibody, V domains shown, Cross pair; Measured as full length IgG) VH: QVQLQQSGPGLVKPSETLSITCTVSGFSLTNYGVHWVRQSPGKGLEWLGVIWSGGNTDYNTPFTSRLTINKDNSKSQVFFKMNSLQSNDTAVYYCARALTYYDYEFAYWGQGTLVTVSA VL: DILLTQSPVILSVSPGERVTFSCRASQSIGTNIHWYQQKPDQSPKLLIKYASESISGVPSRFSGSGSGTDFTLTINSVESEDIADYYCQQNNNWPTTFGAGTKLELKR"
  binding result: "binds"
